assay target: T1, recombinant C-terminally truncated RSV (A2 strain) F protein (RSV (A2 strain), UniProt P03420 26-524)
T1 construct: extracellular domain; also called truncated F protein; extracellular domain of the F protein from RSV A2
T1 sequence (P03420 26-109, chain 1 of 2): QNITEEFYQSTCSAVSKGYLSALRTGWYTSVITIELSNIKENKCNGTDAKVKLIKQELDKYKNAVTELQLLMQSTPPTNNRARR
T1 sequence (P03420 137-524, chain 2 of 2): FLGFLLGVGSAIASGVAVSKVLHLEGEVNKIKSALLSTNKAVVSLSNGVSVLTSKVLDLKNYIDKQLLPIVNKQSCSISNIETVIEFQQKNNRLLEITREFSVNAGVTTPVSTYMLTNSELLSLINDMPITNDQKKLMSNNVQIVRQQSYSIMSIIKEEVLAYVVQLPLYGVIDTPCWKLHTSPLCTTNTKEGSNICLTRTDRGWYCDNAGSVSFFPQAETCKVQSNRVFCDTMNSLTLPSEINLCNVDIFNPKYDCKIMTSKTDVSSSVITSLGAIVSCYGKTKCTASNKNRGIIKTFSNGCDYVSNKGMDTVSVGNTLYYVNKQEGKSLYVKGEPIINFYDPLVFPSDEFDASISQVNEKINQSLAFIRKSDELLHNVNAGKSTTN
method notes: SPR (BIAcore), Fab over immobilised F
reported property: Kd
Quick note: number first, unit second.

The measured Kd associated with G93W Fab (Fab, name in Kabat numbering, V domains shown) VH: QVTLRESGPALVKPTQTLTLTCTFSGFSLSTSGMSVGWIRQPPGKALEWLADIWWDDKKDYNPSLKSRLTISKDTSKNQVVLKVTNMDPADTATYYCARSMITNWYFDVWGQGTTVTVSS VL: DIQMTQSPSTLSASVGDRVTITCSASSSVGYMHWYQQKPGKAPKLLIYDTSKLASGVPSRFSGSGSGTEFTLTISSLQPDDFATYYCFQGSWYPFTFGGGTKVEIK reads 0.93 nM

The measured Kd associated with palivizumab Fab (recombinant) (Fab, V domains shown) VH: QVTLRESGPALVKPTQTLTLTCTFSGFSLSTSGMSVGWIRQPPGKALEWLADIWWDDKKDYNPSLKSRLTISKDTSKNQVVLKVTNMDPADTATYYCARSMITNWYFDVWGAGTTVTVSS VL: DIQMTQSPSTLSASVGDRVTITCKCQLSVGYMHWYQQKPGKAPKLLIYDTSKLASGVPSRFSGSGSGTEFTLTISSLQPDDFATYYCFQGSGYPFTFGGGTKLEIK reads 5.25 nM

More entries:
The measured Kd associated with W100F Fab (Fab, name in Kabat numbering, V domains shown) VH: QVTLRESGPALVKPTQTLTLTCTFSGFSLSTSGMSVGWIRQPPGKALEWLADIWWDDKKDYNPSLKSRLTISKDTSKNQVVLKVTNMDPADTATYYCARSMITNFYFDVWGQGTTVTVSS VL: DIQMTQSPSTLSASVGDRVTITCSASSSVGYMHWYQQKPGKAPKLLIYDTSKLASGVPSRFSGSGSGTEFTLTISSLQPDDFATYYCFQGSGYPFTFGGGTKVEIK reads 0.51 nM
